Molecular target: human NK1 receptor (Homo sapiens)
Construct: human NK1 receptor endogenously expressed in U373 cells; endogenous in cells; host or cells: U373 (human U373MG astrocytoma) cells
Sequence (P25103 whole entry): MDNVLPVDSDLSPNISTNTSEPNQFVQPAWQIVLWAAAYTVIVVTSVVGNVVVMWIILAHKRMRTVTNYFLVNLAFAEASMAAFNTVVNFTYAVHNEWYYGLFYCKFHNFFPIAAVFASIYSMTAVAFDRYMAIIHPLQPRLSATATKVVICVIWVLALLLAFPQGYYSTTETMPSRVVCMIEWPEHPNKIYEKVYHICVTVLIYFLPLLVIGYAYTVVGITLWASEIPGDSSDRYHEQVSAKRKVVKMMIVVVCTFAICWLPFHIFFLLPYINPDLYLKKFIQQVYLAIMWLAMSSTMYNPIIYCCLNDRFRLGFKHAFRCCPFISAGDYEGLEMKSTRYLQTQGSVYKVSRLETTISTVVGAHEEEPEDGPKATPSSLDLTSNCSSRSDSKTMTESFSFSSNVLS
Assay: Antagonist activity at the human NK1 receptor endogenously expressed in U373 cells, agonist-induced cytosolic Ca2+ mobilization (fluorimetric)
Assay type: cell-based
Details: U373 MG, percent inhibition of control response to 3 nM [Sar9,Met(O2)11]-SP at compound concentration 10 μM, read-out: NK1 % inh @10 μM
Parameter: inhibition at 10 µM. Scope: all listed entries.
ATTRIBUTE MEASURED: inhibition at 10 µM (%)

{"columns": ["GIVEN SMILES", "NUMERIC RESULT"],
 "data": [
  ["Cc1ccc(-c2ncccn2)c(C(=O)N2CCC3(CC3)C[C@H]2CNc2ccc(C(F)(F)F)cn2)c1", 87],
  ["Cc1ccc(-n2nccn2)c(C(=O)N2CCC3(CC3)C[C@H]2CNc2ccc(Cl)cn2)c1", 61],
  ["Cc1ccc(-c2ccccn2)c(C(=O)N2CCC3(CC3)C[C@H]2CNc2ccc(Cl)cn2)c1", 87],
  ["Cc1ccc(-n2nccn2)c(C(=O)N2CCC3(CC3)C[C@H]2CNc2ccc(C(F)(F)F)cn2)c1", 67],
  ["O=C(c1cc(F)ccc1-c1ccccn1)N1CCC2(CC2)C[C@H]1CNc1ccc(Cl)cn1", 65],
  ["O=C(c1cc(F)ccc1-n1nccn1)N1CCC2(CC2)C[C@H]1CNc1ccc(Cl)cn1", 61]
]}
